molecular target: α4β1 (Homo sapiens, UniProt P05556+P13612); assay: α4β1 integrin inhibition, IC50; format: binding; details: read-out: α4β1 IC50
Sequence (P13612 34-1032): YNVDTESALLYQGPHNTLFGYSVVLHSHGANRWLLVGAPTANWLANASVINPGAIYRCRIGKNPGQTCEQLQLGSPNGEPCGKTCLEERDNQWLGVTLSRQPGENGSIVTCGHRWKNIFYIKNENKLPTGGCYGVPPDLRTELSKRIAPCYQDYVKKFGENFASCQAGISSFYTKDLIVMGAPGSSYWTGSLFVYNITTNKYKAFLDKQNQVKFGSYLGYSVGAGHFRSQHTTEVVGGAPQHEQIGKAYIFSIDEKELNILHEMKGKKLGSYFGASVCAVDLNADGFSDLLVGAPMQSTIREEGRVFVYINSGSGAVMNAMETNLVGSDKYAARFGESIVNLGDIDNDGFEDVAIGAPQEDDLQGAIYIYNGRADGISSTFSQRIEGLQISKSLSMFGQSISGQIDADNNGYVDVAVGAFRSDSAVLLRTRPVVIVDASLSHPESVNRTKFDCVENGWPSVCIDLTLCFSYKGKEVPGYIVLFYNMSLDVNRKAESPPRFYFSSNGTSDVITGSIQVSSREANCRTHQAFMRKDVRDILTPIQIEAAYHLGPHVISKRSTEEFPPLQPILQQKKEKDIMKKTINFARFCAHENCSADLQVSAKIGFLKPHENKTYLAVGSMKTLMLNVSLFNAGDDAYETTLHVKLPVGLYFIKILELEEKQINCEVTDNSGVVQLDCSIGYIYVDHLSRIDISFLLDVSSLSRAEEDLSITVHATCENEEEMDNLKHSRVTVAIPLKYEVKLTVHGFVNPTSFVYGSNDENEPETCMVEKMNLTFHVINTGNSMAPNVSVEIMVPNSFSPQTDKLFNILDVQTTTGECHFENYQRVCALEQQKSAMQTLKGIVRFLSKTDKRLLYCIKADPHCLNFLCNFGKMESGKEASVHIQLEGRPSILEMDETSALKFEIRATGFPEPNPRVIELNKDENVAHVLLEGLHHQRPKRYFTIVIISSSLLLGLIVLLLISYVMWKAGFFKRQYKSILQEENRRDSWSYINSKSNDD
Sequence (P05556 21-798): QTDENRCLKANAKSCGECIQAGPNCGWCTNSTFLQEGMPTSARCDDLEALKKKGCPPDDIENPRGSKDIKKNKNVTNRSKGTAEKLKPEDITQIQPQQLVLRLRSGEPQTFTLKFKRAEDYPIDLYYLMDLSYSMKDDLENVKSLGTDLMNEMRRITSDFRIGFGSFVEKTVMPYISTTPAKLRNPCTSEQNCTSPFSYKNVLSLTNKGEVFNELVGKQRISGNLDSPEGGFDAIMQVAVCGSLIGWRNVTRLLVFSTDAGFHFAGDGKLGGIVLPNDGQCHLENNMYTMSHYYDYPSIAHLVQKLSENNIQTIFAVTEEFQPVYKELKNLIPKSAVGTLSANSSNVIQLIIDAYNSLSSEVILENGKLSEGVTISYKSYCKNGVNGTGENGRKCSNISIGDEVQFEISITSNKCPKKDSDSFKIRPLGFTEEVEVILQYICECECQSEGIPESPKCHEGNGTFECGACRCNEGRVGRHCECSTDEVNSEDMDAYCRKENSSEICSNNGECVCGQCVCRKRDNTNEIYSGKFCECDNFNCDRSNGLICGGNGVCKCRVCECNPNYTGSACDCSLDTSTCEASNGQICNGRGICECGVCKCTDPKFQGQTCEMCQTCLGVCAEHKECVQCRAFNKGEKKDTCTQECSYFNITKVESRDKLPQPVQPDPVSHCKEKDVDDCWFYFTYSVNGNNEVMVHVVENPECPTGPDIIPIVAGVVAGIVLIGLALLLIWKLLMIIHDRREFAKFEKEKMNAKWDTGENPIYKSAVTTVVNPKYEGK
pIC50: −log10 of the molar value.
OBSERVABLE: pIC50

Would you please look over these solved cases?
In [3]: df
Out[3]:
                                   compound                            assayed_target  observable  result
0  Cc1cn(C)c(=O)c(NC(=O)N[C@@H](CC(=O)O)c2ccc(-c3ccccc3)s2)c1O [1-628]  α4β1 (Homo sapiens, UniProt P05556+P13612)       pIC50  > 6.70
1  COc1ccccc1-c1cccc([C@H](CC(=O)O)NC(=O)Nc2c(O)c(C)cn(C)c2=O)c1 [1-456]  α4β1 (Homo sapiens, UniProt P05556+P13612)       pIC50  > 6.70
2  COc1cc(-c2cccc(OC(F)(F)F)c2)cc([C@H](CC(=O)O)NC(=O)Nc2c(O)cc(C)n(C)c2=O)c1 [1-568]  α4β1 (Homo sapiens, UniProt P05556+P13612)       pIC50  > 7.70

Entry under test: COc1ccc([C@H](CC(=O)O)NC(=O)Nc2c(O)ccn(C)c2=O)cc1-c1c(C)cccc1C [1-533] . Its pIC50 was > 7.70

Entry under test: Cc1cn(C)c(=O)c(NC(=O)NC(CC(=O)O)c2cccc(-c3ccc(Cl)cc3Cl)c2)c1O (stereo not shown) [1-511] . Its pIC50 was > 6.70

Entry under test: Cn1ccc(O)c(NC(=O)N[C@@H](CC(=O)O)c2ccc(-c3cc(F)ccc3F)s2)c1=O [1-614] . Its pIC50 was > 7.70

Entry under test: Cc1ccc([C@H](CC(=O)O)NC(=O)Nc2c(O)cc(C)n(C)c2=O)cc1-c1cccc(OC(F)(F)F)c1 [1-577] . Its pIC50 was > 7.70

Entry under test: Cn1ccc(O)c(NC(=O)N[C@@H](CC(=O)O)c2cccc(-n3cccn3)c2)c1=O [1-522] . Its pIC50 was > 7.70

Entry under test: COc1cc(-c2c(C)cccc2C)cc([C@H](CC(=O)O)NC(=O)Nc2c(O)ccn(C)c2=O)c1 [1-579] . Its pIC50 was > 7.70

Entry under test: Cc1cc(O)c(NC(=O)N[C@@H](CC(=O)O)c2cccc(-c3cccc(Cl)c3)c2)c(=O)n1C [1-556] . Its pIC50 was > 7.70

Entry under test: Cc1cn(C)c(=O)c(NC(=O)NC(CC(=O)O)c2ccc(OCC(F)(F)F)c(-c3ccccc3)c2)c1O (stereo not shown) [1-491] . Its pIC50 was > 6.70

====

Property: IC50; scope: individual compounds
molecular target: α4β1 (Homo sapiens, UniProt P05556+P13612); assay: α4β1 integrin inhibition, IC50; format: binding; settings: read-out: α4β1 IC50

Would you please look over these solved cases?
                                   compound     result
0  COc1cccc(-c2cc(OC)cc([C@H](CC(=O)O)NC(=O)Nc3c(O)cc(C)n(C)c3=O)c2)c1  < 0.02 µM
1  Cc1cn(C)c(=O)c(NC(=O)N[C@@H](CC(=O)O)c2ccc(-c3ccccc3)o2)c1O   < 0.2 µM
2  COc1ccc([C@H](CC(=O)O)NC(=O)Nc2c(O)c(C)cn(C)c2=O)cc1-c1ccccc1   < 0.2 µM
3  COc1ccc([C@H](CC(=O)O)NC(=O)Nc2c(O)cc(C)n(C)c2=O)cc1-c1cccc(OC(F)(F)F)c1  < 0.02 µM
4  Cn1ccc(O)c(NC(=O)N[C@@H](CC(=O)O)c2cc(-c3ccc(F)cc3F)cs2)c1=O  < 0.02 µM
5  CCn1cc(C)c(O)c(NC(=O)NC(CC(=O)O)c2cccc(-c3ccc(Cl)c(Cl)c3)c2)c1=O (stereo not shown)   < 0.2 µM

Simply: Cn1ccc(O)c(NC(=O)N[C@@H](CC(=O)O)c2cccc(-c3ccccc3)n2)c1=O , α4β1 (Homo sapiens, UniProt P05556+P13612), IC50 = < 0.02 µM

Simply: Cc1cc(O)c(NC(=O)N[C@@H](CC(=O)O)c2ccc(-c3ccc(F)cc3F)cc2)c(=O)n1C , α4β1 (Homo sapiens, UniProt P05556+P13612), IC50 = < 0.02 µM

Simply: COc1cccc(-c2cccc([C@H](CC(=O)O)NC(=O)Nc3c(O)c(C)cn(C)c3=O)c2)c1 , α4β1 (Homo sapiens, UniProt P05556+P13612), IC50 = < 0.2 µM

====

target: α4β1 (Homo sapiens, UniProt P05556+P13612); experiment: α4β1 integrin inhibition, IC50; assay type: binding; details: read-out: α4β1 IC50
OBSERVABLE: IC50

In [3]: df
Out[3]:
                                smiles_text    result
0  Cn1ccc(O)c(NC(=O)N[C@@H](CC(=O)O)c2cccc(-c3ccoc3)c2)c1=O   < 20 nM
1  Cc1ccccc1-c1ccc([C@H](CC(=O)O)NC(=O)Nc2c(O)ccn(C)c2=O)cc1   < 20 nM
2  Cc1cn(C)c(=O)c(NC(=O)N[C@@H](CC(=O)O)c2cccc(-c3cccnc3)c2)c1O  < 200 nM

# next compound below
Entry under test: O=C(O)C[C@H](NC(=O)Nc1c(O)cc[nH]c1=O)c1cccc(-c2ccc(F)cc2F)c1 . Its IC50 was < 20 nM

====

Property: IC50; scope: individual compounds
molecular target: α4β1 (Homo sapiens, UniProt P05556+P13612); assay: α4β1 integrin inhibition, IC50; assay type: binding; conditions: read-out: α4β1 IC50

Would you please look over these solved cases?
In [3]: df
Out[3]:
                                   compound                            assayed_target    result
0  Cc1noc(C)c1-c1ccc([C@H](CC(=O)O)NC(=O)Nc2c(O)ccn(C)c2=O)s1  α4β1 (Homo sapiens, UniProt P05556+P13612)   < 20 nM
1  COc1cccc(-c2cc(F)cc([C@H](CC(=O)O)NC(=O)Nc3c(O)ccn(C)c3=O)c2)c1  α4β1 (Homo sapiens, UniProt P05556+P13612)   < 20 nM
2  Cc1ccccc1-c1cccc([C@H](CC(=O)O)NC(=O)Nc2c(O)cc(C)n(C)c2=O)c1  α4β1 (Homo sapiens, UniProt P05556+P13612)   < 20 nM
3  Cn1c(=O)c(NC(=O)N[C@@H](CC(=O)O)c2cccc(-c3ccc(F)cc3F)c2)c(O)c2cccnc21  α4β1 (Homo sapiens, UniProt P05556+P13612)  < 200 nM
4  Cc1cn(C)c(=O)c(NC(=O)N[C@@H](CC(=O)O)c2cccc(-c3ccccc3C(F)(F)F)c2)c1O  α4β1 (Homo sapiens, UniProt P05556+P13612)  < 200 nM

Entry under test: Cc1cn(C)c(=O)c(NC(=O)N[C@@H](CC(=O)O)c2ccc(-c3ccc(F)cc3F)cc2)c1O . Its IC50 was < 20 nM

Entry under test: CC(=O)c1cccc(-c2cccc(C(CC(=O)O)NC(=O)Nc3c(O)c(C)cn(C)c3=O)c2)c1 (centres unmarked) . Its IC50 was < 20 nM

Entry under test: Cc1cscc1-c1ccc([C@H](CC(=O)O)NC(=O)Nc2c(O)cc(C)n(C)c2=O)s1 . Its IC50 was < 20 nM

Entry under test: Cn1ccc(O)c(NC(=O)N[C@@H](CC(=O)O)c2cccc(-c3cccs3)c2)c1=O . Its IC50 was < 20 nM

Entry under test: COc1cccc(-c2cc([C@H](CC(=O)O)NC(=O)Nc3c(O)ccn(C)c3=O)ccc2C)c1 . Its IC50 was < 20 nM

Entry under test: Cc1cn(C)c(=O)c(NC(=O)N[C@@H](CC(=O)O)c2cccc(-c3c(F)cccc3F)c2)c1O . Its IC50 was < 20 nM

====

target: α4β1 (Homo sapiens, UniProt P05556+P13612); assay: α4β1 integrin inhibition, IC50; assay type: binding; conditions: read-out: α4β1 IC50
OBSERVABLE: IC50

>>> print(df.to_string())
                                   molecule   result
0  Cc1cn(C)c(=O)c(NC(=O)NC(CC(=O)O)c2cccc(-c3ccccc3Cl)c2)c1O (stereo not shown) [1-473]  < 20 nM

Entry under test: COc1cccc(-c2ccc([C@H](CC(=O)O)NC(=O)Nc3c(O)ccn(C)c3=O)s2)c1 [1-563] . Its IC50 was < 20 nM

Entry under test: Cc1ccccc1-c1cc([C@H](CC(=O)O)NC(=O)Nc2c(O)ccn(C)c2=O)ccc1OC(F)(F)F [1-624] . Its IC50 was < 20 nM

Entry under test: Cn1ccc(O)c(NC(=O)N[C@@H](CC(=O)O)c2ccc(-c3ccc(F)cc3F)s2)c1=O [1-562] . Its IC50 was < 20 nM

Entry under test: Cc1cccc(C)c1-c1ccc(F)c([C@H](CC(=O)O)NC(=O)Nc2c(O)cc(C)n(C)c2=O)c1 [1-589] . Its IC50 was < 20 nM

Entry under test: Cn1ccc(O)c(NC(=O)N[C@@H](CC(=O)O)c2cc(-c3ccccc3)ccc2F)c1=O [1-570] . Its IC50 was < 20 nM
